# protocol_description: Induction of autophagy in human H4-LC3 cells assessed as number of spots of LC3-GFP after 4 hrs by DAPI staining
# Assay type: functional, cell-based
pEC50: −log10 of the molar value.
readout_label: pEC50

smiles_record=FC(F)(F)c1ccc(C(CCCN2CCC(c3nc4ccccc4[nH]3)CC2)c2ccc(C(F)(F)F)cc2)cc1 readout_label=pEC50 value_relation_sign== meas_value=6.05
smiles_record=O=C1Oc2ccccc2CN1C1CCN(CCCC(c2ccc(F)cc2)c2ccc(F)cc2)CC1 readout_label=pEC50 value_relation_sign== meas_value=5.39
smiles_record=O=C1NC2(CCN(CCCC(c3ccc(F)cc3)c3ccc(F)cc3)CC2)Nc2ccccc21 readout_label=pEC50 value_relation_sign== meas_value=5.72
smiles_record=Fc1ccc(C(CCCN2CCC(n3nc4ccccc4n3)CC2)c2ccc(F)cc2)cc1 readout_label=pEC50 value_relation_sign=< meas_value=4.30
smiles_record=Fc1ccc(C(CCCN2CCC(N3CCc4ccccc43)CC2)c2ccc(F)cc2)cc1 readout_label=pEC50 value_relation_sign== meas_value=5.42
smiles_record=Fc1ccc(C(CCCN2CCC(c3nc4ccccc4s3)CC2)c2ccc(F)cc2)cc1 readout_label=pEC50 value_relation_sign== meas_value=4.97
smiles_record=Fc1ccc(C(CCCN2CCC(c3c[nH]c4ccccc34)CC2)c2ccc(F)cc2)cc1 readout_label=pEC50 value_relation_sign== meas_value=5.19
smiles_record=Fc1ccc(C(CCCN2CCN(c3nsc4ccccc34)CC2)c2ccc(F)cc2)cc1 readout_label=pEC50 value_relation_sign== meas_value=5.00
smiles_record=O=C1c2ccccc2C(=O)N1C1CCN(CCCC(c2ccc(F)cc2)c2ccc(F)cc2)CC1 readout_label=pEC50 value_relation_sign=< meas_value=4.30

The measured values listed here are drawn from ChEMBL document CHEMBL3217438.
